Would you kindly list Selectivity for each of these molecules?
Biological target: OX2 receptor (Homo sapiens, UniProt O43614)
Construct: host or cells: CHO-K1
Experiment: Orexin target function test (Cisbio HTRF IP-one), CHO-K1-OX2 cells, antagonism of EC80 Orexin 2 receptor agonist
Format: cell-based
I only need the number, thanks.

Lookup: Selectivity / OX2 receptor (Homo sapiens, UniProt O43614) / [2H]C([2H])([2H])Oc1ccc(C(=O)N2CC3C=C(c4nc(C)c(F)c(C)n4)CC3C2)c(-n2nccn2)c1 (stereo not shown) 172

Would you kindly repeat that for Cc1nc(C2=CC3CN(C(=O)c4c(F)cccc4-n4nccn4)CC3C2)nc(C)c1F (stereo not shown) ? 80

Would you kindly repeat that for COc1ccc(C(=O)N2CC3C=C(c4nc(C)c(F)c(C)n4)CC3C2)c(-n2nccn2)c1 (stereo not shown) ? 171

Would you kindly repeat that for COc1cc(-n2nccn2)c(C(=O)N2CC3C=C(c4nc(C)c(F)c(C)n4)CC3C2)cn1 (stereo not shown) ? 185

Would you kindly repeat that for COc1ncc(C)nc1C1=CC2CN(C(=O)c3ccc(F)cc3-n3cccn3)CC2C1 (stereo not shown) ? 150

Would you kindly repeat that for [2H]C([2H])([2H])Oc1cc(-n2nccn2)c(C(=O)N2CC3C=C(c4nc(C)c(F)c(C)n4)CC3C2)cn1 (stereo not shown) ? 208

Would you kindly repeat that for COc1cc(C(=O)N2CC3C=C(c4nc(C)cnc4OC)CC3C2)c(-n2nccn2)cn1 (stereo not shown) ? 54

====

Target: OX2 receptor (Homo sapiens)
Construct: host or cells: CHO-K1
Sequence (O43614 1-444): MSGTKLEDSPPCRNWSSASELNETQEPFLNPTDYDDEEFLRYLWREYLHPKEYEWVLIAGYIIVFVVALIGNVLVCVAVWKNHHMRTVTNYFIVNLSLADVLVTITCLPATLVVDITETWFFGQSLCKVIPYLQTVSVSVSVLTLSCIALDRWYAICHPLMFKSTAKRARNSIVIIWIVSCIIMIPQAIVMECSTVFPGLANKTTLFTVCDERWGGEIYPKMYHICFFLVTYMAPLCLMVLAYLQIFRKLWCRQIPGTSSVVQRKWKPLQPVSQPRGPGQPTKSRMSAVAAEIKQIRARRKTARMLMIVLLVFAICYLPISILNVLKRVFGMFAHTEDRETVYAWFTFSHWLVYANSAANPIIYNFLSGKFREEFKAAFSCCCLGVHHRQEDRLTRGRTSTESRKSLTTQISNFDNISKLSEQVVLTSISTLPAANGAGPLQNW
Assay: Orexin target function test (Cisbio HTRF IP-one), CHO-K1-OX2 cells, antagonism of EC80 Orexin 2 receptor agonist
Assay type: cell-based
Details: CHO-K1-OX2 cells, IP-one; read-out: hOX2R IC50
Method: Using Cisbio HTRF IP-one kit to detect the changes in IP-one concentration of orexin receptor (OX1/OX2) signaling pathway by microplate reader, and calculating the IC50 value of the compound to evaluate the antagonistic effect of the compound on OX1 and OX2 receptors. The cells were centrifuged at 1000 rpm for 5 minutes and the supernatant was discarded. 3 mL of PBS was added, and gently blown with a pipette to mix. […]
READOUT KIND: pIC50
pIC50 (log units): -log10 of the concentration in mol/L.

State the recorded pIC50 for this entry: [2H]C([2H])([2H])c1cnc(OC)c(C2=CC3CN(C(=O)c4ccc(OC)cc4-n4nccn4)CC3C2)n1 (centres unmarked) 7.80

Would you kindly repeat that for [2H]C([2H])([2H])Oc1ccc(C(=O)N2CC3C=C(c4nc(C)cnc4OC)CC3C2)c(-n2nccn2)c1 (centres unmarked) ? 7.74

Would you kindly repeat that for COc1ccc(C(=O)N2C[C@H]3CC(c4nc(Cl)cnc4OC)=C[C@H]3C2)c(-n2nccn2)c1 (relative stereo) ? 7.66

Would you kindly repeat that for COc1nc(C2=CC3CN(C(=O)c4c(F)cccc4-n4nccn4)CC3C2)nc(C)c1F (centres unmarked) ? 7.92

Would you kindly repeat that for COc1ncc(C)nc1C1=CC2CN(C(=O)c3c(F)cccc3-n3nccn3)CC2C1 (centres unmarked) ? 7.70

Would you kindly repeat that for COc1ccc(C(=O)N2CC3C=C(c4nc(C)cnc4OC)CC3C2)c(-c2ncccn2)c1 (centres unmarked) ? 7.68

Would you kindly repeat that for Cc1nc(C2=CC3CN(C(=O)c4c(F)cccc4-n4nccn4)CC3C2)nc2c1CCCC2 (centres unmarked) ? 7.62

Would you kindly repeat that for Cc1nc(C2=CC3CN(C(=O)c4c(F)cccc4-n4nccn4)CC3C2)nc2c1COC2 (centres unmarked) ? 7.61
